study target: Testis-specific serine/threonine-protein kinase 1 (Homo sapiens) (UniProt Q9BXA7)
Sequence (whole entry): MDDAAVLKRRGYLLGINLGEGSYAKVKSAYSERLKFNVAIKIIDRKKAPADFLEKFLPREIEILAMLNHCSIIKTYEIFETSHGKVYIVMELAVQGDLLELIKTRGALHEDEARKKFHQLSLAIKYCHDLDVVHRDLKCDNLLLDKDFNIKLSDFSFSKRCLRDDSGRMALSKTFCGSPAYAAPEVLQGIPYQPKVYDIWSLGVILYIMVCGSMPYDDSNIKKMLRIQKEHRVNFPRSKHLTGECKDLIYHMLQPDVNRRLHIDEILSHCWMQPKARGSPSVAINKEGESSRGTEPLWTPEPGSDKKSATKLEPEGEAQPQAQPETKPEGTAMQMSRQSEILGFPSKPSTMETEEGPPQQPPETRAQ
settings: at 10 µM
Would you please tag the item Met when its residual activity is 90% or above, and Not met when it is below?

[
  {
    "compound": "COc1cc2ncnc(Nc3ccc(O)c(Br)c3)c2cc1OC",
    "answer label": "Not met"
  },
  {
    "compound": "CCN(CC)CCCCN1c2ccccc2Oc2ccc(Cl)cc21",
    "answer label": "Met"
  },
  {
    "compound": "O=c1c2ccccc2[nH]c(=S)n1CCN1CCC(=C(c2ccc(F)cc2)c2ccc(F)cc2)CC1",
    "answer label": "Not met"
  },
  {
    "compound": "CN(C)c1ccc(/C=C2\\C(=O)Nc3ccccc32)cc1",
    "answer label": "Met"
  },
  {
    "compound": "N#C/C(=C(\\N)Sc1ccc(N)cc1)c1ccccc1C(F)(F)F",
    "answer label": "Not met"
  },
  {
    "compound": "O=C1Nc2ccccc2/C1=C1/Nc2ccccc2/C1=N\\OCCC(O)CO (configuration not stated)",
    "answer label": "Not met"
  }
]

---

study target: Insulin-like growth factor 1 receptor (Homo sapiens) (UniProt P08069)
Sequence (P08069 31-736 limits assumed): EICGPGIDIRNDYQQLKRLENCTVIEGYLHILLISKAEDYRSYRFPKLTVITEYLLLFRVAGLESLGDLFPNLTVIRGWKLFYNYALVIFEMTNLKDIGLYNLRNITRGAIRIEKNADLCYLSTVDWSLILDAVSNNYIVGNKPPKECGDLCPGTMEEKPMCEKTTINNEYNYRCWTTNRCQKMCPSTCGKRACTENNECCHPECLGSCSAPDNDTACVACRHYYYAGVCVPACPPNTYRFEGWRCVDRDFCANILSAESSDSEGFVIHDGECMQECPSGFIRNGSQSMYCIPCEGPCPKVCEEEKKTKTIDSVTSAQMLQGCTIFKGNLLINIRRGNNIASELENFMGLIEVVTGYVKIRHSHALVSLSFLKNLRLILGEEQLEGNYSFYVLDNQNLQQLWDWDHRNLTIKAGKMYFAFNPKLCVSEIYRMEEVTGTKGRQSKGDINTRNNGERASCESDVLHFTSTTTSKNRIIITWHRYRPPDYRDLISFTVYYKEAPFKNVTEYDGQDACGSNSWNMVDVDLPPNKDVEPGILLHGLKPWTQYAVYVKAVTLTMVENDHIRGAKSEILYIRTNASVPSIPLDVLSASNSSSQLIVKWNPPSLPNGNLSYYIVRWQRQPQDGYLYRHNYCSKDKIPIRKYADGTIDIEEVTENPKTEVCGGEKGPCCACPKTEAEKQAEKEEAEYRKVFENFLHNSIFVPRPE
Sequence (P08069 741-1367 limits assumed): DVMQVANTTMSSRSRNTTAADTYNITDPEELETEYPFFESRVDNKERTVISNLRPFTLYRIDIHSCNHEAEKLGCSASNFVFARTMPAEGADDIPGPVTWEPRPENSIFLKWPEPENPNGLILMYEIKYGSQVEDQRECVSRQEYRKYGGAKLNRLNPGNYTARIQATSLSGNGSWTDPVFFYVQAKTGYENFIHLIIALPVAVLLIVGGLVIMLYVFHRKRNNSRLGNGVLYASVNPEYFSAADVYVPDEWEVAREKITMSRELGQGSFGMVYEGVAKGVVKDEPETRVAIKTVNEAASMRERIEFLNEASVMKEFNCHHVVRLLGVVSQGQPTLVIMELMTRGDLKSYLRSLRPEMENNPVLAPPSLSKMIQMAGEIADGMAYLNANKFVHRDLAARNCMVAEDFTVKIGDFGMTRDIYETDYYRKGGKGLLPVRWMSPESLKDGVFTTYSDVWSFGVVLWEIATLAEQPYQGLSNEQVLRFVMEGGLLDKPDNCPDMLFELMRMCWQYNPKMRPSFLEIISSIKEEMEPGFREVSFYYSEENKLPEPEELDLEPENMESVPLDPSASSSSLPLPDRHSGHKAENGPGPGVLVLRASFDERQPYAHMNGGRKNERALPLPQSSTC
settings: at 1 µM

[
  {
    "structure": "CC[n+]1c(/C=C/N(C)c2ccccc2)n(-c2ccccc2)c2ccc(-c3nc4ccccc4s3)cc21",
    "residual activity (%)": 97
  },
  {
    "structure": "Nc1ccc2ncnc(NCCc3ccc(Oc4ccccc4)cc3)c2c1",
    "residual activity (%)": 116
  },
  {
    "structure": "COc1cc2ncnc(Nc3ccc(Oc4ccccc4)cc3)c2cc1OC",
    "residual activity (%)": 110
  },
  {
    "structure": "NC(=O)c1ccc2[nH]c(-c3ccc(Oc4ccc(Cl)cc4)cc3)nc2c1",
    "residual activity (%)": 89
  },
  {
    "structure": "O=C1NC(=O)c2c1c1c3ccccc3[nH]c1c1[nH]c3cc(Br)ccc3c21",
    "residual activity (%)": 96
  },
  {
    "structure": "CCOc1cc2ncnc(Nc3cccc(Br)c3)c2cc1OCC",
    "residual activity (%)": 104
  },
  {
    "structure": "Ic1cccc(CSc2nnc(-c3ccncc3)o2)c1",
    "residual activity (%)": 79
  },
  {
    "structure": "Cn1cc(/C=C2\\C(=O)Nc3ccc(S(N)(=O)=O)cc32)c2ccccc21",
    "residual activity (%)": 81
  },
  {
    "structure": "c1ccc2c(-c3ccncc3)c[nH]c2c1",
    "residual activity (%)": 88
  },
  {
    "structure": "CO[C@@H]1[C@H](N(C)C(=O)c2ccccc2)C[C@H]2O[C@]1(C)n1c3ccccc3c3c4c(c5c6ccccc6n2c5c31)C(=O)NC4",
    "residual activity (%)": 92
  }
]
